biological target: human GLP-1 receptor (human, UniProt P43220 24-463); experiment: cell-based or functional assay
Numbered stars: 1 amine (or outer) side, 2 acyl side, 3 side chain; on linkers, the order of the positions; unused ones are H or OH. Square brackets hold non-standard residues; d marks the D form. Side chains are listed from the residue outwards. Ends that are not written are not given here. γGlu = O=C(O)[C@H](CCC(=O)[*:2])N[*:1]; X70 = not defined here; Aib = CC(C)(N)C(=O)O
Measurement label: EC50 hGLP-1R (cAMP) (pM)
Numbers only, in pM.

Sample answers from the record:
Given the entry H[Aib]QGTFTSDLSKQK([γGlu-X70])DSQAAQDFIEWLKAGGPSSGAPPPS-NH2 (reading uncertain) [SEQ ID NO: 156] , report its measured EC50 hGLP-1R (cAMP).
2.9

EC50 hGLP-1R (cAMP) for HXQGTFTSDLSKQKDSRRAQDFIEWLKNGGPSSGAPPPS (dSer at 2; K(γE-x53) at 14; C-terminal NH(n-Propyl)) [SEQ ID NO: 10] ?
9.2

Here is another binder to look at.
Item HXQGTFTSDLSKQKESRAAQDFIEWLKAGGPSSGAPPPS (dSer at 2; K(GABA-x53) at 14; C-terminal NH2) [SEQ ID NO: 50] has what recorded EC50 hGLP-1R (cAMP)?
3.3

From: patent US20180185450A1
